Values from patent US20240043404A1

# Test system: RS4;11 cells
# assay summary: RS4;11 cell viability assay (CellTiter Glo);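 further: acute lymphoblastic leukemia line RS4,11, EC50 derived from percentage of viable cells after treatment relative to untreated controls, cell killing taken as a measure of Bcl-2 inhibition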
# Assay type: cell-based, human
# run conditions: Homo sapiens, RS4-11, 48 h, 50,000 cells per well, 10% human serum, 48 hours; read-out: RS4; 11 EC50 Values
experimental readout: EC50 (nM)

Some compounds with known EC50 results, for comparison:
- compound: "CN1CCN(Nc2ccc(S(=O)(=O)NC(=O)c3ccc(N4CCN(CC5=C(c6ccc(Cl)cc6)CC(C)(C)OC5)CC4)cc3Oc3cnc4[nH]ccc4c3)cc2[N+](=O)[O-])CC1 [Example 67]"
  measured on: "RS4;11 cells"
  measured value: 49.5
- compound: "CO[C@H]1CC[C@@H](COc2ccc(S(=O)(=O)NC(=O)c3ccc(N4CCN(CC5=C(c6ccc(Cl)cc6)CC(C)(C)CC5)CC4)cc3Oc3cnc4[nH]ccc4c3)cc2[N+](=O)[O-])CC1 [Example 121]"
  measured on: "RS4;11 cells"
  measured value: 59.7

a = O=C(NS(=O)(=O)c1cnc(OCC2CCOCC2)c(Cl)c1)c1ccc(N2CCN(CC3=C(c4ccc(Cl)cc4)CCC4(CCN(C(CF)CF)CC4)C3)CC2)cc1Oc1cnc2[nH]ccc2c1 [Example 267]
b = CC1(C)CCC(CN2CCN(c3ccc(C(=O)NS(=O)(=O)c4ccc(NCCCNC5CC5)c([N+](=O)[O-])c4)c(Oc4cnc5[nH]ccc5c4)c3)CC2)=C(c2ccc(Cl)cc2)C1 [Example 291]
c = CC1(C)CCC(CN2CCN(c3ccc(C(=O)NS(=O)(=O)c4ccc(NCC5CN(C(CF)CF)C5)c([N+](=O)[O-])c4)c(Oc4cnc5[nH]ccc5c4)c3)CC2)=C(c2ccc(Cl)cc2)C1 [Example 161]
Ascending by EC50, please: list the compounds accordingly. Provide your answer as the labels ordered per the instruction. b, c, a
(b: 16.1 nM, c: 34.6 nM, a: 69.4 nM)
